# System: MDA-MB-231
# method: NCI tumour cell line growth inhibition, 48 h
Activity calls are given as the source filed them. No stated cut-off is given here; in the data, active = GI50 up to about 1.1 µM and inactive = higher.
Just give me one of these, please: active, inactive

query: Each molecule tested received a call. Report the one for CN(C)CS/C(N)=N\C(O)C(Cl)(Cl)Cl (configuration not stated) .
result: inactive

query: Each molecule tested received a call. Report the one for Oc1c(NCn2nc(CCCCCCCCc3nn(CNc4ccc5ccccc5c4O)c(=S)o3)oc2=S)ccc2ccccc12 .
result: inactive

query: Each molecule tested received a call. Report the one for C=C1C(NC)CCC23CC24CCC2(C)C(C(C)=O)C(O)CC2(C)C4CCC13 (configuration not stated) .
result: inactive

query: Each molecule tested received a call. Report the one for COc1ccc(NC(=S)NNC(=O)c2cc(-c3ccccc3)nc3ccccc23)cc1 .
result: inactive

query: Each molecule tested received a call. Report the one for CC(=O)Nc1ccc(Nc2cc(O)nc(O)n2)cc1 .
result: inactive

query: Each molecule tested received a call. Report the one for COc1cccc2cc(C(N)=O)c(=N)oc12 .
result: inactive

query: Each molecule tested received a call. Report the one for O=c1[nH]c2c(c(=O)[nH]1)SC(c1ccccc1)C2 (configuration not stated) .
result: inactive

query: Each molecule tested received a call. Report the one for c1ccc2c(c1)[n-]n1c3ccc4nonc4c3n[n+]21 .
result: inactive

query: Each molecule tested received a call. Report the one for CC[C@]12C=CCN3CC[C@@]4(c5cc(N=O)c(OC)cc5N(C)[C@H]4[C@@](O)(C(=O)OC)[C@@H]1OC(C)=O)[C@@H]32 .
result: inactive

query: Each molecule tested received a call. Report the one for c1csc(-c2ccc(-c3cccs3)c3nsnc23)c1 .
result: inactive

query: Each molecule tested received a call. Report the one for CN1C(=O)C(O)CC1c1ccccc1C(F)(F)F (configuration not stated) .
result: inactive

query: Each molecule tested received a call. Report the one for CN(C)c1ccc(/C=C/C=c2/c3ccccc3n3c2cc(-c2ccccc2)[n+]3C)cc1 .
result: active
